These measurements were taken from patent US20200339604A1.

# Target or test system: isolated recombinant JAK2 kinase domain (Homo sapiens)
# Construct: isolated recombinant JAK1 and JAK2 kinase domain
# Sequence (O60674 849-1124 limits assumed): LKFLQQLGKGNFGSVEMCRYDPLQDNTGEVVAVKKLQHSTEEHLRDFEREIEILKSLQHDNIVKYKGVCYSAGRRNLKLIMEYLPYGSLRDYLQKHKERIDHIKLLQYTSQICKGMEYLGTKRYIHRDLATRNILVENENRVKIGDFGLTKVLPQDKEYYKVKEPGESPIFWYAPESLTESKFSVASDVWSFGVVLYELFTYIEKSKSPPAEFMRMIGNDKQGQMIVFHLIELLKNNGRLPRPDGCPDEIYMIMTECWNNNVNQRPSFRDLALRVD
# Assay text: JAK enzyme assay, JAK2 kinase domain (Caliper LabChip)
# Test conditions: 0.2 nM JAK2, ATP 25 μM, Morrison tight binding model
Measured metric: log10 of Ki (log10 of the value in pM)
// units: pM (pre-log); metric: Ki; scale: log10

Worked cases, log10 of Ki given:
- CN1CCN(C(=O)CN2CCC(n3cc(NC(=O)c4cnn5cccnc45)c(-c4cc(Cl)ccc4OC(F)F)n3)C2=O)CC1 (single isomer, unassigned) [Example 16]: 2.83
- O=C(Nc1cn(C2CCOC2=O)nc1-c1cc(Cl)ccc1OC(F)F)c1cnn2cccnc12 (single isomer, unassigned) [Example 28]: 2.30
- CN1CCC(n2cc(NC(=O)c3cnn4cccnc34)c(-c3cc(Cl)c(C#N)cc3OC(F)F)n2)C1=O (racemic) [Example 22]: 3.60
- O=C(Nc1cn(C2CCOC2=O)nc1-c1cc(OC(F)F)ccc1OC(F)F)c1cnn2cccnc12 (single isomer, unassigned) [Example 37]: 2.26
- Cn1[nH]cc(-n2cc(NC(=O)c3cnn4cccnc34)c(-c3cc(Cl)ccc3OC(F)F)n2)c1=O [Example 26]: 2.15

Consider the record given below.
Q) Can you look up the measured log10 of Ki of CN1CCC(n2cc(NC(=O)c3cnn4cccnc34)c(-c3cc4c(cc3OC(F)F)NCCO4)n2)C1=O (single isomer, unassigned) [Example 10] for me?
A) 2.76

---

Entries annotated with measured pKi
# Target or test system: isolated recombinant JAK1 kinase domain (Homo sapiens)
# Construct: isolated recombinant JAK1 and JAK2 kinase domain
# Assay text: JAK enzyme assay, JAK1 kinase domain (Caliper LabChip)
# Test conditions: 1.5 nM JAK1, ATP 25 μM, Morrison tight binding model
# Experimental: JAK Enzyme Assays were Carried Out as Follows: The activity of the isolated recombinant JAK1 and JAK2 kinase domain was measured by monitoring phosphorylation of a peptide derived from JAK3 ([…] fluorescently labeled on the N-terminus with 5-carboxyfluorescein) using the Caliper LabChip® technology (Caliper Life Sciences, Hopkinton, Mass.). […]
Reminder that pKi is minus the log10 of a molar concentration.

# count of solved cases: 4
- CN1CCC(n2cc(NC(=O)c3cnn4cccnc34)c(-c3cc4c(cc3OC(F)F)NCCS4)n2)C1=O (single isomer, unassigned) [Example 13]: 9.06
- CN1CCCC(n2cc(NC(=O)c3cnn4cccnc34)c(-c3cc(Cl)ccc3OC(F)F)n2)C1=O (single isomer, unassigned) [Example 20]: 9.32
- CSc1ccc(OC(F)F)c(-c2nn(C3CCN(C)C3=O)cc2NC(=O)c2cnn3cccnc23)c1 (single isomer, unassigned) [Example 6]: 9.74
- CN1CC[C@H](n2cc(NC(=O)c3cnn4cccnc34)c(-c3cc(Cl)ccc3OC(F)F)n2)C1=O (stereo in doubt): 9.68

Q) Can you share its pKi? I mean this compound: CN1CCC(n2cc(NC(=O)c3cnn4cccnc34)c(-c3cc4c(cc3OC(F)F)NCCS4)n2)C1=O (single isomer, unassigned) [Example 12]
A) 9.82

---

# Target or test system: isolated recombinant JAK1 kinase domain (Homo sapiens, UniProt P23458)
# Construct: isolated recombinant JAK1 and JAK2 kinase domain
# Sequence (P23458 875-1153 limits assumed): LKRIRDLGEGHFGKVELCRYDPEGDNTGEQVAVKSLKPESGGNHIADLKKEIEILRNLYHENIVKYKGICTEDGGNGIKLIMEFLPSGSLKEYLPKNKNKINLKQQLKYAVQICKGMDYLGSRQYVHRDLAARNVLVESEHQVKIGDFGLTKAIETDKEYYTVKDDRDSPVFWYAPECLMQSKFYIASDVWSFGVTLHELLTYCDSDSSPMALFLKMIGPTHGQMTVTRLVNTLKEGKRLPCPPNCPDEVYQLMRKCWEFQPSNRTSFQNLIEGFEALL
# Assay text: JAK enzyme assay, JAK1 kinase domain (Caliper LabChip)
# Test conditions: 1.5 nM JAK1, ATP 25 μM, Morrison tight binding model
Lab note - cut at 0.8 nM for Ki: t if strictly below, f if not.

Examples from the recorded data:
• CN1CCC(n2cc(NC(=O)c3cnn4cccnc34)c(-c3cc4c(cc3OC(F)F)NCCO4)n2)C1=O (single isomer, unassigned) [Example 10] = t
• Cn1[nH]cc(-n2cc(NC(=O)c3cnn4cccnc34)c(-c3cc(Cl)ccc3OC(F)F)n2)c1=O = f
• CN1CCC(n2cc(NC(=O)c3cnn4cccnc34)c(-c3cc(OC(F)F)ccc3OC(F)F)n2)C1=O (single isomer, unassigned) [Example 9] = f

Q) Given the entry CS(=O)(=O)c1ccc(OC(F)F)c(-c2nn(C3CCOC3=O)cc2NC(=O)c2cnn3cccnc23)c1 (single isomer, unassigned) [Example 41] , would its reported Ki be below 0.8 nM?
A) t
